The reported measurements were obtained from patent US20250376519A1.

Target: T1, human DLL3 on cells (human, UniProt Q9NYJ7 27-618)
T1 construct: Endogenous on H1184 and SHP77; Cell line is named under assay; also called H1184; DLL3/H82
T1 sequence: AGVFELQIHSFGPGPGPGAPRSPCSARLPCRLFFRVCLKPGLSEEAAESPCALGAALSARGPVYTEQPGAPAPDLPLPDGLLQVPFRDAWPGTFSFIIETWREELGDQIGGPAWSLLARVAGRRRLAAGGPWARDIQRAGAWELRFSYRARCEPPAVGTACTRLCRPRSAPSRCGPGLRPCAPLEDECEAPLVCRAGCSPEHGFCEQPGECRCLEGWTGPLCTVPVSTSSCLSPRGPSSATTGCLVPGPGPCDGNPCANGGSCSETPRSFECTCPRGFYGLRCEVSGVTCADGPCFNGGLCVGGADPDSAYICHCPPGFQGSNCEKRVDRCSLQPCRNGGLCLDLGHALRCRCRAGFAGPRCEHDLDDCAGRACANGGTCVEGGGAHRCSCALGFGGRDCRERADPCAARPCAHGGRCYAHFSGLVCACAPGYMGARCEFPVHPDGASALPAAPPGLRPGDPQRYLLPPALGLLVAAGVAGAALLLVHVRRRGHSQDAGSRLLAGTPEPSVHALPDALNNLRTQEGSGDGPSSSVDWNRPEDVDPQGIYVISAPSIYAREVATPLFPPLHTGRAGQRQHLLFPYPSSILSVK
Assay: flow cytometry, H1184 cells
Overview of recorded pEC50 for various binders
Recall that pEC50 is obtained by taking minus log10 of the concentration measured in molar.

Here's what some known entries look like.
[
  {
    "binder": "hu6L2H6 (antibody, human IgG1, kappa, V domains shown) VH: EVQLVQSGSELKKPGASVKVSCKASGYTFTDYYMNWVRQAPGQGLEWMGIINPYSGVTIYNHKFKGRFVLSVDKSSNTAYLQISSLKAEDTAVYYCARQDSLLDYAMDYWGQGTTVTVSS VL: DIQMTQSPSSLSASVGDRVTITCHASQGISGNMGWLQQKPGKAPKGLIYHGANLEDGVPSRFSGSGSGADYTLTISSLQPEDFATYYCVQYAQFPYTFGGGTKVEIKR",
    "assay.endpoint": "pEC50",
    "value.reported": 10.30
  },
  {
    "binder": "hu6L4H4 (antibody, human IgG1, kappa, V domains shown) VH: EVQLVQSGAEVKKPGASVKVSCKASGYTFTDYYMNWVRQAPGKRLEWMGIINPYSGVTIYNHKFKGRVTLTVDKSANTAYMELSSLRSEDTAVYYCARQDSLLDYAMDYWGQGTTVTVSS VL: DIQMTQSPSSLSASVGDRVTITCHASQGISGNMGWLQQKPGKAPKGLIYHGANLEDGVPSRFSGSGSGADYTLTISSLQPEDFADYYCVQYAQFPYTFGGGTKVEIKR",
    "assay.endpoint": "pEC50",
    "value.reported": 10.22
  },
  {
    "binder": "hu6L4H12 (antibody, human IgG1, kappa, V domains shown) VH: EVQLVQSGSELKKPGASVKVSCKASGYTFTDYYMNWVRQAPGQGLEWMGIINPYSGVTIYNHKFKGRFALSVDKSSNTAYLQISSLKAEDTAVYYCARQDSLLDYAMDYWGQGTTVTVSS VL: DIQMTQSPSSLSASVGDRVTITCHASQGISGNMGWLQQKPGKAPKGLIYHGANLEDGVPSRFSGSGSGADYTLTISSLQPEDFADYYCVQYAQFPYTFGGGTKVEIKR",
    "assay.endpoint": "pEC50",
    "value.reported": 10.30
  },
  {
    "binder": "hu6L2H7 (antibody, human IgG1, kappa, V domains shown) VH: EVQLVESGGGLVQPGGSLKLSCAASGYTFTDYYMNWVRQASGKGLEWVGIINPYSGVTIYNHKFKGRFTLSVDKSKNTAYLQMNSLKTEDTAVYYCARQDSLLDYAMDYWGQGTTVTVSS VL: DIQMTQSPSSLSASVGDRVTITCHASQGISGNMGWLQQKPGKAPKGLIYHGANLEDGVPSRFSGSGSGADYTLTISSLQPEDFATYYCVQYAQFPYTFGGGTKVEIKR",
    "assay.endpoint": "pEC50",
    "value.reported": 10.15
  },
  {
    "binder": "hu6L4H13 (antibody, human IgG1, kappa, V domains shown, also called hu6L4VH13) VH: EVQLVQSGSELKKPGASVKVSCKASGYTFTDYYMNWVKQAPGQGLEWMGIINPYSGVTIYNHKFKGRFALSVDKSSNTAYLQISSLKAEDTAVYYCARQDSLLDYAMDYWGQGTTVTVSS VL: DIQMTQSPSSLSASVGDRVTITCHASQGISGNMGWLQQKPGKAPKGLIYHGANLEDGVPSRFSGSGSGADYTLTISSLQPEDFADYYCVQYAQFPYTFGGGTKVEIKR",
    "assay.endpoint": "pEC50",
    "value.reported": 10.05
  }
]

q: Could you please provide reported pEC50 for hu6L2H11 (antibody, human IgG1, kappa, V domains shown) VH: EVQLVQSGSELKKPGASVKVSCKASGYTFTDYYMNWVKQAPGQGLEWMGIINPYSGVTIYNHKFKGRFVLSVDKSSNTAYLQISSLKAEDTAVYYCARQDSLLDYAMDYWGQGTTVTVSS VL: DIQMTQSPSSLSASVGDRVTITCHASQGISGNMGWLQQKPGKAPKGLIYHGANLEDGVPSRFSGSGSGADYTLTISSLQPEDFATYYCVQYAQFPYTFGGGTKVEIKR ? Thanks!
a: 10.40

q: Could you please provide reported pEC50 for hu6L2H13 (antibody, human IgG1, kappa, V domains shown) VH: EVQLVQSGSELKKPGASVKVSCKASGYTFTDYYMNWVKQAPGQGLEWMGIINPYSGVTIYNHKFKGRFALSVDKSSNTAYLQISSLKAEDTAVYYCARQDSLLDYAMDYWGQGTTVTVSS VL: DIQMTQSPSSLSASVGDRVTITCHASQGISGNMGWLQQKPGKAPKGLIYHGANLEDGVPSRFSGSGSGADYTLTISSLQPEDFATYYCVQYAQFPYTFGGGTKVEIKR ? Thanks!
a: 10.00

q: Could you please provide reported pEC50 for hu6L2H5 (antibody, human IgG1, kappa, V domains shown) VH: EVQLVQSGSELKKPGASVKVSCKASGYTFTDYYMNWVRQAPGQGLEWMGIINPYSGVTIYNHKFKGRFVLSVDKSVSTAYLQISSLKAEDTAVYYCARQDSLLDYAMDYWGQGTTVTVSS VL: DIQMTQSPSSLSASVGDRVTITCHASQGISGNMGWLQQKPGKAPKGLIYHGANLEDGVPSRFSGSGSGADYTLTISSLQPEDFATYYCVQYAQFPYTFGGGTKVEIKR ? Thanks!
a: 10.22
